Target system: Mitogen-activated protein kinase 14 (Homo sapiens, UniProt Q16539)
Sequence (Q16539 whole entry): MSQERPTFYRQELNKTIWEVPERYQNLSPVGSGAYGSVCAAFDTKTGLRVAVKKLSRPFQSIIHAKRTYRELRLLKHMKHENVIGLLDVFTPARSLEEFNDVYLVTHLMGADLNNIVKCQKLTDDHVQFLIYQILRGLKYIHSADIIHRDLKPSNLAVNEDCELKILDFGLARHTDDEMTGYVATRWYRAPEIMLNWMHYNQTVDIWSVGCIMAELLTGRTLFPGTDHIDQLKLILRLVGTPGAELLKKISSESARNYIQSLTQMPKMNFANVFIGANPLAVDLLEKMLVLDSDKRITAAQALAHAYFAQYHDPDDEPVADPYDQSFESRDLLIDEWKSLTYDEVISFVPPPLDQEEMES
Method notes: Displacement of SKF86002 from recombinant human p38alpha by fluorescence-based assay
Measurement context: read-out: IC50
Endpoint: IC50 (nM)

Completed entries (count: 2):
// IC50 value for CCc1nc(-c2cccc(C(=O)O)c2)c(-c2ccnc(NC(=O)c3ccccc3)c2)s1 : 1500

Recorded result, Cc1cccc(-c2nc(C(C)O)sc2-c2ccnc(NC(=O)c3ccccc3)c2)c1 (centres undefined) , IC50: 38

1. CC(O)c1nc(-c2cccc(CO)c2)c(-c2ccnc(NC(=O)c3ccccc3)c2)s1 (centres undefined)
2. CCc1nc(-c2cccc(CO)c2)c(-c2ccnc(NC(=O)c3ccccc3)c2)s1
# returns the entry with the larger IC50; inputs 1 and 2 Pick one and reply with its label.
1

The reported numbers originate from ChEMBL document CHEMBL3217704.
